- System: TRPC4 (mouse), co-expressed with 5HT1a in HEK293
- experiment: calcium flux potentiators in TRPC4/5HT1a cells, confirmation, counter-screen for TRPC4 potentiator project, cell-based, second counter screen, HEK293 TRPC4/5HT1a, Fluo-4 (AID 434979)
- applied conditions: Fluo-4 calcium flux, at 10 µM; active compounds read high, serotonin added at its EC20 dose unless noted
Calls of active or inactive are those of the source.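 The calls were made as follows: active = signal rise over 3 SD above mean of control wells given weak agonist, in both repeats and first screen; inactive = the rest.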
measurement name: potentiation

{"compound": "CN1CCN(Cc2cc(=O)n3ccsc3n2)CC1", "system tested": "TRPC4 (mouse), co-expressed with 5HT1a in HEK293", "reported measurement": "20% (active)"}
{"compound": "CCCCN1C(=O)NC(=O)C2(Cc3c(nc4c(C)cccn4c3=O)N3CCc4ccccc4C32)C1=O (stereo unspecified)", "system tested": "TRPC4 (mouse), co-expressed with 5HT1a in HEK293", "reported measurement": "37.1% [active compounds read high] (active)"}
{"compound": "Cc1ccc(-c2nc(N(C)C3CCN(C)CC3)c3ccccc3n2)cc1", "system tested": "TRPC4 (mouse), co-expressed with 5HT1a in HEK293", "reported measurement": "34.7% (active)"}
{"compound": "FC(F)(F)c1ccc(CN2CCNCC2)cc1", "system tested": "TRPC4 (mouse), co-expressed with 5HT1a in HEK293", "reported measurement": "25.6% [active compounds read high] (active)"}
{"compound": "COC(=O)C(O)(c1ccc(NC(=S)NC(=O)c2ccc(Cl)cc2Cl)c(C)c1)C(F)(F)F (stereo unspecified)", "system tested": "TRPC4 (mouse), co-expressed with 5HT1a in HEK293", "reported measurement": "24.2% (active)"}
{"compound": "CCN1CCN(Cc2cc(Br)ccc2O)CC1", "system tested": "TRPC4 (mouse), co-expressed with 5HT1a in HEK293", "reported measurement": "16.8% (active)"}

###

- system tested: Short transient receptor potential channel 6 (Mus musculus)
- experiment: activation of mouse TRPC6 channel, confirmation, selectivity assay for TRPC4 activator project, cell-based, HEK293, membrane potential dye, duplicate (AID 434950);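 as to activation: 0% = buffer only wells and 100% = acetylcholine maximal-effect wells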
- applied conditions: HEK293 TRPC6, membrane potential fluorescence, at 10 µM
Calls of active or inactive are those of the source.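 The calls were made as follows: active = membrane potential signal rise above negative control mean plus 3 SD in both duplicates, also active in the earlier TRPC4 screen; inactive = the rest.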
Outcome codes: class 1 for active, class 0 for inactive

{"molecule": "COc1ccc(C(CNC(=O)Cc2ccc(Cl)c(Cl)c2)N(C)C)cc1 (stereo not drawn)", "answer label": "class 1"}
{"molecule": "COc1ccc(C(=O)C2CCCN(C3CSCCSC3)C2)cc1OC (stereo not drawn)", "answer label": "class 1"}
{"molecule": "Oc1c(Br)cc(Br)cc1CN1CCN(Cc2ccccc2)CC1", "answer label": "class 0"}
{"molecule": "COc1ccc(CCNCc2ccc(SC)cc2)cc1", "answer label": "class 1"}
{"molecule": "CCCCc1ncc(CN2CCCC(C(=O)c3ccc(SC)cc3)C2)[nH]1 (stereo not drawn)", "answer label": "class 0"}
{"molecule": "COC(=O)C(Cc1ccc(N(CCCl)CCCl)cc1)N=Cc1ccccc1O (stereo not drawn)", "answer label": "class 0"}
{"molecule": "Cc1ccc(C[n+]2c(-c3ccc(C)cc3)cc(-c3ccc(C)cc3)cc2-c2ccc(C)cc2)cc1", "answer label": "class 0"}
{"molecule": "CC1CN(c2ccc([N+](=O)[O-])c3cccnc23)CC(C)N1 (stereo not drawn)", "answer label": "class 0"}
{"molecule": "c1ccc2sc(C3CCCNC3)nc2c1 (stereo not drawn)", "answer label": "class 1"}
{"molecule": "CCC1(C)CC(CCNCc2ccc(N(C)C)cc2)(c2ccc(F)cc2)CCO1 (stereo not drawn)", "answer label": "class 0"}
{"molecule": "CN1CCN(c2cccc3c2C(=O)c2ccccc2C3=O)CC1", "answer label": "class 0"}
{"molecule": "CCN(CC)c1ccc([N+](=O)[O-])c2cccnc12", "answer label": "class 0"}
{"molecule": "C[C@H]1OC[C@@H](C[N+](C)(C)C)O1", "answer label": "class 1"}
{"molecule": "CCC(=O)OC1(c2cccc(C)c2)CC(C)N(C)CC1C (stereo not drawn)", "answer label": "class 1"}
{"molecule": "Cc1ccc(-c2cc(-c3ccccc3)cc(-c3ccccc3)[n+]2-c2ccccc2)cc1", "answer label": "class 0"}
{"molecule": "COc1ccc(C(CNC(=O)CCc2ccsc2)N(C)C)cc1 (stereo not drawn)", "answer label": "class 1"}
{"molecule": "CC[C@@H](CO)NC(=O)[C@@H]1C=C2c3cccc4c3c(cn4C)C[C@H]2N(C)C1", "answer label": "class 0"}
{"molecule": "COc1cccc(O)c1CN1CCCC(C(=O)c2sccc2C)C1 (stereo not drawn)", "answer label": "class 0"}
{"molecule": "COc1ccc(CN2CCCC(C(=O)c3sccc3C)C2)cc1O (stereo not drawn)", "answer label": "class 0"}
{"molecule": "C=CCOC(=O)C1=C(C)OC(N)=C(C#N)[C@@]12C(=O)N(CC(N)=O)c1ccccc12", "answer label": "class 0"}
{"molecule": "CN1CCN(Cc2cc(=O)n3ccsc3n2)CC1", "answer label": "class 0"}
{"molecule": "O=C(c1cccc(C(F)(F)F)c1)C1CCCN(Cc2ccccc2O)C1 (stereo not drawn)", "answer label": "class 0"}
{"molecule": "Cc1ccc(C)c(NC(=S)NCCc2cnc[nH]2)c1", "answer label": "class 0"}
